Assay: yeast display, Sf9 membrane polyspecificity reagent, FACS + sequencing; frameworks hold sequencing errors
value kind: polyreactivity (PSR sort gate)

Would you please look over these solved cases?
{"columns": ["polymer sequence", "polyreactivity (PSR sort gate)"],
 "data": [
  ["QVQLVESGGGLVQAGGSLRLSCAASGRTFSRNAMGWYRQAPGKERELVATITSDGSTNYADSVKGRFTISRDNAKNTVYLQMNSLKPEDTAVYYCAAGEQSSIIGAHDYWGQGTQVTVSS", "low polyreactivity"],
  ["QVQLVESGGGLVQAGRSLRLSCAASGSILGYYAMGWYRQAPGKERELVAITSGDSTYYADSVNGRFTISRDNAKNTVYLQMNSLKPEDTAVYYCAAEGQNEGYDYWGQGTKVTVSS", "high polyreactivity"],
  ["QVQLVDSGGGLVQAGGSLGLSCAASGRSFTFNAMGWYRQAPGKERELVAAISSRGDGTYYADSVKGRFTISRDNAKNNVYLQMNSLKPEDTAVYYCARYPDDYYDWGYDYWGQGTQVTVSS", "low polyreactivity"],
  ["QVQLVESGGGLVQAGGSLRLSCAASGSIFDGNALGWYRQAPGKERELVAAISYRGGSTYYADSVKGRFTISRDNAKNTVYLQMNSLKPEDTAVYYCAAGSISTPGRGVDKPDPYDYWGQGTQVTVSS", "low polyreactivity"],
  ["QVQLVESGGGLVQAGGSLRLSCAASGSTFSYYAMGSYRQAPGKERELVADISWSGGSTYYADSVKGRFTISRDNAKNTVYLQMNSLKPEDTAVYYCAARGYVRWYNRYDYWGQGTQVTVSS", "low polyreactivity"]
]}

Enquiry: Identify measured polyreactivity (PSR sort gate) corresponding to QVQLVESGGGLVQAGGRLRLSCAASGSSSTPYTMGWYRPAPGKERELVAAISWIGDTTSYADSVKGRFTISRDNAKNTVYLQMNSLKPEDTAVYYCNAEHRGYDYWGHGTQVTVSS
Return: low polyreactivity

Enquiry: Identify measured polyreactivity (PSR sort gate) associated with QVQLVESGGGLVQAGGSLRLICAASGFTFDENAMGWYRQAPGINYSGASTYYADSVKGRFTISRDNAKNTVYLQMISLKPEDTAVYYCAADYETGAVSILDDYWGQGTQVTVSS
Return: low polyreactivity

Enquiry: Using known records, supply polyreactivity (PSR sort gate) for QVQLVESGGGLLKAGGSLRLSCAASGIIFDSYAMGWYIQAPGKERELVAAITSDSGRTYYADSVKGRFTISRDYAKNTFYLQMNSLKPEDTAVYYCAKRWEGPYDYWGQGSQVTVSS
Return: low polyreactivity

Enquiry: Read off the recorded polyreactivity (PSR sort gate) for QVQLVESGGGLDQAGGSLRLSCAASGSIFLDYAMGWYRQAPGKERELVAAISLSSSRTYYADSLKGRFTISRDNAKNTVYLQLNSLKPEDTAVYNCNKLSIWSYYFGPYGYDYWGQGTQVTVSS
Return: low polyreactivity

Enquiry: Look up polyreactivity (PSR sort gate) of QVQLVESGGGLVQAGGSLRLSCAASGSTFGFNAMGWYRQAPGKERELLPLFWSGGSTYYADSVKGRFTISRDNAKNTVYLQMNSLKPEDTAVYYCNKDSPPITRYDYWGQGTQVTVSS and report it.
Return: low polyreactivity

Enquiry: // fetch polyreactivity (PSR sort gate) given entry QVQLVESGGGLVQAGGRLRLSCAASGIIFSYYAMGWYRQAPGKERELVAAISWGGGSTYYADSVKGRFTISRDYAKNTVYLQMNSLKPEDTAVYYCAADYFDFFTGYEMGYWGQGTKVTVSS
Return: high polyreactivity

Enquiry: For the sequence QVQLVESGGGLVQAGGSLRLSCAASGRTFEYYAMGWYRQAPGKERELVAAITSGGITYYADSVKGRFTISRDNAKYTVYLQMNSLKPEDTAVYYCNARHRYYRYGYWGQGTQVTVSS , give its reported polyreactivity (PSR sort gate).
Return: high polyreactivity

Enquiry: For the sequence QVQLVESGGGLVQAGCSLRLSCAASGYNLFAYAMGWYRQSPGKERELVATINTSGGITYYADSVNGRFTISRDIANNTVYLQMNSLKPEDTAVYYCAAADGGGLVTYYYWGQGTQVTVSS , report polyreactivity (PSR sort gate).
Return: low polyreactivity

Enquiry: Answer with the recorded polyreactivity (PSR sort gate) for the sequence listed here: QVQLVESGVGLVQAGVSLRISCAASGSIFDTYAMGWYRQAPGKERELVAAIRWTGGSTYYADSVKGRFTISRDNAKNTVYLQMNSLKREDTAVYYCATPSYGRPGFGYWGQGTQVTVSS
Return: low polyreactivity

Enquiry: Consider the sequence QVQLVESGGGLVQAGGSHRLSCAASGRIFSVNAMGWYRQAPGKERELVASISWSGGSTYYADSVKGRFTISRDNAKNPVYLQMNSLKPEDTAVYYCNARIDSYGLDFDYWGQGTQVTVSS . State its measured polyreactivity (PSR sort gate).
Return: low polyreactivity

Enquiry: Find the measured polyreactivity (PSR sort gate) of QVQLVETGGGLVQAGGSLRLSCAASGRPFHRYALGWYRQAPGKDRALGAAISRGGITYYADSVKGRFTISRDNAKNTVYLQMNSLKPEDTAVYYCAALYRYYHESSPFDYWGQGTQVTVSS and report it.
Return: high polyreactivity

Enquiry: Tell me polyreactivity (PSR sort gate) reported for QVQLVESGGGLVQAGGSLRLSCAASGSIFWGNAMGWYRQAPGKERELVAAIRRGTSTYYADSVKGRFTISRDNAKNTVYVQMNSLKPEDTAVYYCAASPFRYVYHFDYWGQGTQVTVSS
Return: high polyreactivity

Enquiry: Return reported polyreactivity (PSR sort gate). Input sequence: QVQLVESGGGLVQAGGSLRLSCAASGITFIGYPMGWYRQAPGKERELVASITSGANTNYADSVKGRFTISRDNAKNTVYLQMNSLKPEDTAVYYCAAPEHGTYANILGEPLDYWGQGTQVTVSS
Return: low polyreactivity

Enquiry: Entry QVQLVESGGGLVQAGGSLRLSCAASGSTFQTYAMGWYRQAPGKERELVAAITSGGSTNYADSVKGRFTISRDNAKNTVYLQMNSLKPEDTAVYYCAVRQIYQTSDHRLQYDYWGQGTQVTVSS needs its polyreactivity (PSR sort gate) filled in; supply it.
Return: low polyreactivity

Enquiry: Output polyreactivity (PSR sort gate) of QVQLVESGGGLVQAGGSLRLSFAASGRIFAYYAMGCYRQAPGKERELVASISRSGGRTYYADSVKGRFTISRDNAKNTVYLQMNSLKPEDTAVYYFNRAVWFKSTVDYWGQGTQVTVSS
Return: high polyreactivity

Enquiry: Consider the sequence QVQLVESGGGLVQAGGSLRLSCAASGSIFAYYAMGWYRQAPGKERELVAAISRRGGSTYYADSVKGRFTISRDNAKNTGYLQMNSLQPEDTAVYYCAADIGPRYDSWGLGTQVTVSS and give its recorded polyreactivity (PSR sort gate).
Return: high polyreactivity

Entry source: the nanobody polyreactivity screen of Harvey et al. (2022)
